- assayed_system: T1, LHD202A
- T1 construct: de novo designed protomer; BLI: one protomer of the pair was Avi-tagged, biotinylated and immobilised; also called LHD202 protomer A; source: E. coli BL21 LEMO, purified (Ni-NTA, SEC)
- T1 sequence (main, as listed by the source): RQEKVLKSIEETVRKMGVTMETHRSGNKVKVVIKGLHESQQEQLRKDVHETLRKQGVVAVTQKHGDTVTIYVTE
- assay_comment: BLI; biotinylated protomer on streptavidin biosensors, designed partner in solution; 25 °C; 10 mM HEPES pH 7.4, 150 mM NaCl, 3 mM EDTA, 0.05% Surfactant P20, 1 mg/ml BSA; steady-state fit, 1:1 model
- assay_setup: both partners purified
measurement_type: pKd
Please express pKd as -log10 of the molar concentration.

pKd measured on LHD202B (designed binder) SVEFHIVNISEEQRQRIEEYVRRISKKEGTEVRFEKRDGELTIEVKNLHEKRLQEILEYIERVNK = 5.62
